Values compiled from ChEMBL document CHEMBL4673285.

- assay: AUC (0 to infinity) in male Sprague-Dawley rat plasma at 4 mg/kg, iv measured up to 24 hrs by LC-MS/MS analysis
- Format: ADME, organism-based
- Set-up: route intravenous, dose 4 mg/kg, time <=24
value kind: AUC(0-inf) (ng·h/mL)
Kindly provide the numeric value in ng·h/mL only, without the unit symbol.

Look up AUC(0-inf) for this compound: Cc1cc(CN[C@H](CO)C(=O)O)c(OCc2cncc(C#N)c2)cc1NCc1cccc(-c2ccccc2)c1C 908

====

- assay: Initial plasma concentration in male Sprague-Dawley rat plasma at 4 mg/kg, iv measured up to 24 hrs by LC-MS/MS analysis
- Format: ADME, organism-based
value kind: C0 at 24 h

Look up C0 at 24 h for this compound: Cc1cc(CN[C@H](CO)C(=O)O)c(OCc2cncc(C#N)c2)cc1NCc1cccc(-c2ccccc2)c1C 4370 ng/mL
